tgt: Rap guanine nucleotide exchange factor 3 (Homo sapiens)
assay comment: Validation qHTS for antagonist of cAMP-regulated guanine nucleotide exchange factor 3 (EPAC1); also: nearly all actives have a fitted effect of over 75% in size
assay setup: EPAC1 Rap1B-BODIPY-GDP exchange, fluorescence; series mostly up to 150 µM
Out of some 16,000 compounds screened, about 120 (0.75%) were called active. Not shown: some 4% with an inconclusive outcome. Calls follow the shape of the dose curve; as a rule, active = well fitted inhibition curve with a large enough effect; inconclusive = small, poorly fitted or top-dose-only effect; inactive = no such curve, though single readings can be large or run the other way. This excerpt belongs to a sample that is enriched for actives.
Classes used: active, inactive

molecule: C[C@H](CC[C@@H]1OC1(C)C)C1CC[C@H]2[C@@H]3CC=C4C[C@@H](O)CC[C@]4(C)[C@H]3CC[C@]12C (stereo partly specified)
category label: inactive

molecule: O=c1c(-c2ccccc2)nc2cnc(Oc3cccc(Cl)c3)nc2n1C[C@H]1CCCO1
category label: inactive

molecule: Cc1cccc2[nH]cc(/C=C3/C=Nc4ccccc43)c12
category label: inactive

molecule: Cc1ccc(C2(O)CCN(CCCC(=O)c3ccc(F)cc3)CC2)cc1
category label: inactive

molecule: O=C(NCC1Cc2cccc(-c3cnccn3)c2O1)c1ccc2c(c1)OCCO2 (stereo unspecified)
category label: inactive

molecule: COc1cccc(Cn2c(=O)c(-c3cc(F)cc(F)c3)nc3cncnc32)c1
category label: inactive

molecule: CC(=O)OC1CCC2(C)C3=C(CCC2C1(C)C)[C@@]1(C)CCC(C(C)CCC=C(C)C)[C@@]1(C)CC3 (stereo partly specified)
category label: inactive

molecule: O=c1cc(-c2ccc(O)cc2)oc2cc(O[C@H]3OC(CO)C(O)C(O)C3O)cc(O)c12 (stereo partly specified)
category label: inactive

molecule: COc1cc(O)c2c(=O)c(O)c(-c3ccc(O)c(O)c3)oc2c1
category label: inactive

molecule: CCCCCCCCCCCCCCCCC(C(=O)O)C(O)(CC(=O)O)C(=O)O (stereo unspecified)
category label: active

molecule: COc1ccc(C2OC3C(CO)OC(n4cnc5c(=O)[nH]c(N)nc54)C3O2)cc1 (stereo unspecified)
category label: inactive

molecule: O=c1cc(-c2ccc(O)c(O)c2)oc2cc(OC3OC(CO)C(O)C(O)C3O)cc(O)c12 (stereo unspecified)
category label: active

molecule: CC1CC[C@@]2(C(=O)O)CC[C@]3(C)C(=CCC4[C@@]5(C)CCC(O)C(C)(C)C5CC[C@@]43C)C2C1C (stereo partly specified)
category label: inactive

molecule: CCC(C(=O)NC(N)=O)c1ccccc1 (stereo unspecified)
category label: inactive

molecule: O=c1c(O)c(-c2ccccc2)oc2cc(O)cc(O)c12
category label: inactive

molecule: O=c1c(O)c(-c2ccc(O)cc2O)oc2cc(O)cc(O)c12
category label: inactive

molecule: CCCCCCCCCCCCCCCCSCC(COC)COP(=O)([O-])OCC[N+](C)(C)C (stereo unspecified)
category label: inactive

molecule: O=c1cc(-c2ccc(O)cc2)oc2cc(O)cc(O)c12
category label: inactive

molecule: COc1cc(OC)c(OC)cc1CN1CCC(n2cc(C(=O)N3CCCCC3)nn2)CC1
category label: inactive

molecule: Cc1cc2c(cc1C)N[C@]1(C[C@H]3CCCC(=O)N4CC[C@@H](C1)[C@@H]34)C(=NCc1ccccc1)N2
category label: inactive

molecule: O=C1C=CC2=C3c4cc(O)c(O)cc4C[C@@]3(O)COC2=C1
category label: inactive

* * *

tgt: Rap guanine nucleotide exchange factor 3 (Homo sapiens)
assay comment: Validation qHTS for antagonist of cAMP-regulated guanine nucleotide exchange factor 3 (EPAC1); also: nearly all actives have a fitted effect of over 75% in size
assay setup: EPAC1 Rap1B-BODIPY-GDP exchange, fluorescence; series mostly up to 150 µM
Screen size: about 16,000 compounds; about 120 (0.75%) were called active. Inconclusive results (about 4%) are left out. Calls follow the shape of the dose curve; as a rule, active = well fitted inhibition curve with a large enough effect; inconclusive = small, poorly fitted or top-dose-only effect; inactive = no such curve, though single readings can be large or run the other way. This excerpt belongs to a sample that is enriched for actives.
Classes used: active, inactive

compound: CC(=O)Oc1c(-c2ccccc2)oc2c(CC=C(C)C)c3c(c(OC(C)=O)c2c1=O)C=CC(C)(C)O3
tgt: Rap guanine nucleotide exchange factor 3 (Homo sapiens)
category label: inactive
--
compound: CCCc1c(OCCCOc2ccc(OCC(=O)O)cc2)ccc(C(C)=O)c1O
tgt: Rap guanine nucleotide exchange factor 3 (Homo sapiens)
category label: inactive
--
compound: CC(C)=CCc1c2c(c(O)c3c(=O)c(O)c(-c4ccccc4)oc13)C=CC(C)(C)O2
tgt: Rap guanine nucleotide exchange factor 3 (Homo sapiens)
category label: inactive
--
compound: Oc1cc(O)c2c(c1)OC(c1cc(O)c(O)c(O)c1)C(O)C2 (stereo unspecified)
tgt: Rap guanine nucleotide exchange factor 3 (Homo sapiens)
category label: inactive
--
compound: COc1ccc(-n2c(=O)c(CCc3ccccc3)nc3cnc(N4CCNCC4)nc32)cc1
tgt: Rap guanine nucleotide exchange factor 3 (Homo sapiens)
category label: inactive
--
compound: COc1ccc(C(C)=O)cc1
tgt: Rap guanine nucleotide exchange factor 3 (Homo sapiens)
category label: inactive
--
compound: CC(C)c1ccc2c(c1)CC[C@@H]1[C@@](C)(CN)CCC[C@]21C
tgt: Rap guanine nucleotide exchange factor 3 (Homo sapiens)
category label: inactive
--
compound: O=C[C@H](O)[C@@H](O)[C@H](O[C@H]1O[C@H](CO)[C@@H](O[C@H]2O[C@H](CO)[C@@H](O)[C@H](O)[C@H]2O)[C@H](O)[C@H]1O)[C@H](O)CO
tgt: Rap guanine nucleotide exchange factor 3 (Homo sapiens)
category label: inactive
--
compound: Cc1nc(N=Nc2ccc(C(=O)O)cc2)c(COP(=O)(O)O)c(C=O)c1O
tgt: Rap guanine nucleotide exchange factor 3 (Homo sapiens)
category label: inactive
--
compound: CCOc1ccc(S(=O)(=O)O)c2cccnc12
tgt: Rap guanine nucleotide exchange factor 3 (Homo sapiens)
category label: inactive
--
compound: CCCc1c(OCCCCc2nn[nH]n2)ccc(C(C)=O)c1O
tgt: Rap guanine nucleotide exchange factor 3 (Homo sapiens)
category label: inactive
--
compound: CC(C)(Sc1ccc(CCN(CCCCC2CCCCC2)C(=O)NC2CCCCC2)cc1)C(=O)O
tgt: Rap guanine nucleotide exchange factor 3 (Homo sapiens)
category label: active
--
compound: COc1ccc(C(=O)NCC2Cc3cc(C)cc(-c4cc(C(C)=O)ccc4F)c3O2)c(OC)c1OC (stereo unspecified)
tgt: Rap guanine nucleotide exchange factor 3 (Homo sapiens)
category label: inactive
--
compound: CC#CCC(C)[C@H](O)/C=C/[C@@H]1[C@H]2c3cccc(CCCC(=O)O)c3O[C@H]2C[C@H]1O (stereo partly specified)
tgt: Rap guanine nucleotide exchange factor 3 (Homo sapiens)
category label: inactive
--
compound: CC1CC[C@@]2(C(=O)O)CCC3(C)C(=CCC4[C@]5(C)CC(O)C(O)[C@](C)(CO)C5C(O)C[C@@]43C)C2C1C (stereo partly specified)
tgt: Rap guanine nucleotide exchange factor 3 (Homo sapiens)
category label: inactive
--
compound: Oc1ccc(C2Oc3cc(O)cc(O)c3CC2O)cc1 (stereo unspecified)
tgt: Rap guanine nucleotide exchange factor 3 (Homo sapiens)
category label: inactive
--
compound: Oc1cc(O)c2c(c1)O[C@H](c1ccc(O)c(O)c1)[C@@H](O)C2
tgt: Rap guanine nucleotide exchange factor 3 (Homo sapiens)
category label: inactive
--
compound: Cc1c(C)c2c(c(C)c1O)CC[C@@](C)(CCC[C@H](C)CCC[C@H](C)CCCC(C)C)O2
tgt: Rap guanine nucleotide exchange factor 3 (Homo sapiens)
category label: inactive
--
compound: O=c1c(O)cc(C2Oc3cc(O)cc(O)c3CC2O)cc2c(C3Oc4cc(O)cc(O)c4CC3O)cc(O)c(O)c12 (stereo unspecified)
tgt: Rap guanine nucleotide exchange factor 3 (Homo sapiens)
category label: active
--
compound: COc1ccc(SC[C@H](C)CN2CC[C@H](C(C)(C)C)CCC2=O)cc1
tgt: Rap guanine nucleotide exchange factor 3 (Homo sapiens)
category label: inactive
--
compound: Cc1ncc2c(c1CNC(=O)c1ccc3c(c1)OCO3)CCN(C(=O)c1scc3c1CCCC3)C2
tgt: Rap guanine nucleotide exchange factor 3 (Homo sapiens)
category label: inactive
--
compound: CC(=O)N1CCC2(CC1)CN(c1cccc(-c3ccccc3)c1)C2
tgt: Rap guanine nucleotide exchange factor 3 (Homo sapiens)
category label: inactive
--
compound: COC(=O)[C@@H]1[C@@H]2C[C@H]3c4[nH]c5ccccc5c4CCN3C[C@@H]2CC[C@@H]1O
tgt: Rap guanine nucleotide exchange factor 3 (Homo sapiens)
category label: inactive
--
compound: CC(C)=CCCC1(C)C=Cc2c(O)c3c(c(CC=C(C)C)c2O1)OC12C(=CCCC1C(C)(C)O[C@@]2(C/C=C(\C)C(=O)O)C(=O)O)C3=O (stereo partly specified)
tgt: Rap guanine nucleotide exchange factor 3 (Homo sapiens)
category label: active
--
compound: Cc1nc(N=Nc2cc(S(=O)(=O)O)c3cc([N+](=O)[O-])cc(S(=O)(=O)O)c3c2)c(COP(=O)(O)O)c(C=O)c1O
tgt: Rap guanine nucleotide exchange factor 3 (Homo sapiens)
category label: inactive
--
compound: O=C(Nc1ccc(/C=C/c2ccc(NC(=O)c3cc(S(=O)(=O)O)c4cccnc4c3O)cc2S(=O)(=O)O)c(S(=O)(=O)O)c1)c1cc(S(=O)(=O)O)c2cccnc2c1O
tgt: Rap guanine nucleotide exchange factor 3 (Homo sapiens)
category label: active
--
compound: O=S(=O)(O)c1cc(I)c(O)c2ncccc12
tgt: Rap guanine nucleotide exchange factor 3 (Homo sapiens)
category label: inactive
--
compound: CCN(CC)CCOC[C@H]1O[C@@H](O)[C@H](OCCN(CC)CC)[C@@H](O)[C@@H]1O
tgt: Rap guanine nucleotide exchange factor 3 (Homo sapiens)
category label: inactive
--
compound: Oc1ccc2c(c1)OC(c1ccc(O)c(O)c1)C(O)C2 (stereo unspecified)
tgt: Rap guanine nucleotide exchange factor 3 (Homo sapiens)
category label: inactive
--
compound: COc1ccc2c(c1OC)C(=O)O[C@H]2C1c2c(cc3c(c2OC)OCO3)CCN1C (stereo partly specified)
tgt: Rap guanine nucleotide exchange factor 3 (Homo sapiens)
category label: inactive
--
compound: NC(C(=O)O)c1cc(O)c(Cl)c(O)c1 (stereo unspecified)
tgt: Rap guanine nucleotide exchange factor 3 (Homo sapiens)
category label: active
--
compound: CC(=O)N[C@@H](Cc1c[nH]c2ccccc12)C(=O)O
tgt: Rap guanine nucleotide exchange factor 3 (Homo sapiens)
category label: inactive
--
compound: O=C(O)c1cc(O)c2c(c1)[C@H]([C@H]1c3cc(C(=O)O)cc(O)c3C(=O)c3c(O[C@@H]4O[C@H](CO)[C@@H](O)[C@H](O)[C@H]4O)cccc31)c1cccc(O[C@@H]3O[C@H](CO)[C@@H](O)[C@H](O)[C@H]3O)c1C2=O
tgt: Rap guanine nucleotide exchange factor 3 (Homo sapiens)
category label: active
--
compound: COc1ccc(-c2nc3cc(C)ccc3cc2CN(C(=O)c2ccc(C)s2)C2CC2)cc1OC
tgt: Rap guanine nucleotide exchange factor 3 (Homo sapiens)
category label: inactive
--
compound: COc1ccc(C(=O)CC(=O)c2ccc(C(C)(C)C)cc2)cc1
tgt: Rap guanine nucleotide exchange factor 3 (Homo sapiens)
category label: active
--
compound: COc1ccc(C(=O)N2CCC3(CC2)CN(c2ccccc2)C3)cc1
tgt: Rap guanine nucleotide exchange factor 3 (Homo sapiens)
category label: inactive

From: PubChem BioAssay AID1645882
